B1: FAM46C (parent)
chain: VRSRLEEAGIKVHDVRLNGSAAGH

- Variants of: B1
- ASSAY_REMARKS: protein stability index of a GFP-peptide fusion (GPS, HEK-293T) (PSI 1-6); higher = more stable;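 note: lentivirally expressed fusions sorted by FACS into six bins by GFP to DsRed ratio, PSI derived from sequencing read proportions per bin multiplied by bin number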
- EXPERIMENTAL_PARAMETERS: c terminus: a fixed tail appended
Please respond with reported protein stability index for every item in the list.
Answers are plain numbers.

As a guide, the following entries are already answered.
| MUTANT_ID | OBS_VALUE |
| --- | --- |
| E6D | 3.09 |
| E7T | 2.51 |
| G19H | 2.54 |
| G23Y | 2.18 |
| G9H | 4.57 |

Provide the reported protein stability index of each entry below, same order.
1. E6R
2. E7Y
3. A22W
4. G23A
5. L17C
6. E7G
7. V12Q

[2.59, 2.8, 2.68, 2.92, 2.61, 3.06, 4.06]

Provide the reported protein stability index of each entry below, same order.
1. K11W
2. G19A
3. K11F
4. E6P
5. N18E
6. H13D

1: 2.69; 2: 2.19; 3: 1.51; 4: 3.71; 5: 1.53; 6: 1.02

Provide the reported protein stability index of each entry below, same order.
1. V1H
2. V12E
3. K11A
4. A8M
5. N18M
6. N18S

1. 4.02
2. 4.73
3. 3.94
4. 2.58
5. 3.59
6. 4.1

Provide the reported protein stability index of each entry below, same order.
1. H13A
2. A22G
3. R4A

[2.98, 2.86, 1.2]

Provide the reported protein stability index of each entry below, same order.
1. R16E
2. E6I
3. D14P

4.63
2.54
4.54

Provide the reported protein stability index of each entry below, same order.
1. R2T
2. K11C
3. A22S
4. H13E
5. A21R
6. V15E

1. 3.82
2. 2.73
3. 2.17
4. 4.06
5. 2.83
6. 3.27

Provide the reported protein stability index of each entry below, same order.
1. V1A
2. A21Y
3. E7C
4. N18T

[3.16, 1.56, 1.47, 1.87]

Provide the reported protein stability index of each entry below, same order.
1. G9K
2. K11Q

1: 2.75; 2: 2.74

meta.source: the supplement of paper PMC10567573
